assay procedure: Protein binding in SCID mouse plasma
Format: ADME, cell-free
condition label: read-out: PPB (converted)
measured property: fraction unbound

[
  {
    "molecule smiles": "Cc1n[nH]c2cnc(-c3cc(OC[C@@H](N)Cc4c[nH]c5ccccc45)cnc3-c3ccoc3)cc12",
    "fraction unbound": 0.057
  }
]

1 = Cc1n[nH]c2ccc(-c3cc(OC[C@@H](N)Cc4c[nH]c5ccccc45)cnc3-c3ccoc3)nc12
2 = Cc1[nH]nc2ccc(-c3cc(OC[C@@H](N)Cc4c[nH]c5ccccc45)cnc3-c3ccoc3)cc12
Would you kindly point out which of 1 and 2 has the smaller fraction unbound figure? Give the chosen item's label as your response.
2
(2: 0.041, 1: 0.069)

###

assay procedure: Protein binding in SCID mouse plasma
Format: ADME, cell-free
condition label: read-out: PPB (converted)
measured property: fraction unbound

[
  {
    "molecule smiles": "Cc1n[nH]c2ncc(-c3cc(OC[C@@H](N)Cc4c[nH]c5ccccc45)cnc3-c3ccoc3)nc12",
    "fraction unbound": 0.091
  }
]

1 = Cc1n[nH]c2cnc(-c3cc(OC[C@@H](N)Cc4c[nH]c5ccccc45)cnc3-c3ccoc3)nc12
2 = Cc1n[nH]c2ncc(-c3cc(OC[C@@H](N)Cc4c[nH]c5ccccc45)cnc3-c3ccoc3)cc12
Would you kindly point out which of 1 and 2 has the smaller fraction unbound figure? Give the chosen item's label as your response.
2
